Recorded MIC, one value per entry.
# System: Enterobacter cloacae MA75-1
# Protocol Details: In vitro MIC, agar dilution, Enterobacter cloacae MA75-1
# Format: cell-based
# Test Parameters: MA751; Enterobacter cloacae MA75-1; agar dilution, 35° C., 18 hours, nutrient agar; read-out: Minimal Inhibitory Concentration

Solved cases below.
{"columns": ["Compound", "Recorded Measurement"],
 "data": [
  ["CO/N=C(\\C(=O)NC1C(=O)N2C(C(=O)O)=C(CSc3nnc(-n4nc(C)cc4C)n3N)CSC12)c1csc(N)n1 (stereo not drawn)", "128 µg/mL"],
  ["CCN1CCN(C(=O)NC(C(=O)NC2C(=O)N3C(C(=O)O)=C(CSc4nnc(-n5nc(C)cc5C)n4N)CS[C@H]23)c2ccc(O)cc2)C(=O)C1=O (stereo partly drawn)", "> 128 µg/mL"],
  ["Nn1c(SCC2=C(C(=O)O)N3C(=O)C(NC(=O)Cc4cccs4)[C@H]3SC2)nnc1-n1cccn1 (stereo partly drawn)", "> 128 µg/mL"],
  ["CCN1CCN(C(=O)NC(C(=O)NC2C(=O)N3C(C(=O)O)=C(CSc4nnc(-n5cccn5)n4N)CS[C@H]23)c2ccc(O)cc2)C(=O)C1=O (stereo partly drawn)", "> 128 µg/mL"]
]}

Enterobacter cloacae MA75-1 MIC of CO/N=C(\C(=O)NC1C(=O)N2C(C(=O)O)=C(CSc3nnc(-n4cccn4)n3N)CSC12)c1csc(N)n1 (stereo not drawn) is 128 µg/mL

Enterobacter cloacae MA75-1 MIC of CC(=O)OCC1=C(C(=O)O)N2C(=O)[C@@H](NC(=O)[C@H](N)c3ccccc3)[C@H]2SC1 [Compound XI, Cephaloglycin, reference compound] is > 128 µg/mL
